System: EPHB3;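 further: KINOMEscan kinase panel screen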
Conditions: concentration: 1 μM, replicates: in singlicate; n = 1
Assign fulfilled to entries whose %Inh meets or exceeds 10%; assign not fulfilled to the rest.

Enquiry: Is the recorded value of %Inh equal to or greater than 10% for this compound? Nc1nccc2scc(-c3ccc4c(c3)CCN4C(=O)Cc3cc(F)ccc3F)c12 [GSK2587663]
Return: fulfilled

Enquiry: Check if %Inh >= 10% (inclusive). Item: CCc1nc(-c2cccc(C)c2)c(-c2ccnc(NC(=O)c3ccccc3)c2)s1
Return: fulfilled

Enquiry: Could you tell me if the measured %Inh of O=C(c1ccc(-c2cc(-c3c[nH]nc3-c3ccccn3)ccn2)cc1)N1CCCC1 [GW792479] reaches 10% or more?
Return: fulfilled

Enquiry: Threshold query (%Inh >= 10%) on FC(F)(F)c1ccc(-c2cc(-c3c[nH]nc3-c3ccccn3)ccn2)cc1 [GW599550]
Return: not fulfilled

Enquiry: Threshold query (%Inh >= 10%) on CS(=O)(=O)CCNCc1ccc(-c2ccc3ncnc(Nc4ccc(OCc5ccccc5)c(Cl)c4)c3c2)o1.Cl [GW574783]
Return: fulfilled

Enquiry: Could you tell me if the measured %Inh of Clc1cccc(-c2nc(Nc3ccncc3)c3ccccc3n2)c1 [GW873004] reaches 10% or more?
Return: not fulfilled

Data credit: paper PMC5540273
